What ADCC activity, Multiple of maximum fluorescence value (vs. IgG) was measured for each of the following?
Biological target: T1, human CD25 on cells (human, UniProt P01589 22-272)
T1 sequence (looked up): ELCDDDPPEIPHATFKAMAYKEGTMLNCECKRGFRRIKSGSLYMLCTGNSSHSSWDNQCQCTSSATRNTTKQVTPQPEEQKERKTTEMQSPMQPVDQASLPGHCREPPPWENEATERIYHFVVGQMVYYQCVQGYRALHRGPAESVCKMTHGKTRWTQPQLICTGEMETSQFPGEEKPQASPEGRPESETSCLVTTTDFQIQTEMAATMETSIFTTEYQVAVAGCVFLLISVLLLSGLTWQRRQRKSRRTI
Assay: cell-based or functional assay
Quote the value and follow it with the unit of measurement.

Dear colleague, I am looking for the recorded ADCC activity, Multiple of maximum fluorescence value (vs. IgG) of the following binder: PR006 (antibody, human IgG1, kappa, V domains shown) VH: EVQLVQSGAEVKKPGASVKVSCKASGYTFTGHWIEWVRQAPGQGLEWMGEILPGSNKINYNEKFKGRVTFTADTSTSTVYMELSSLRSEDTAVYYCAGGGGPHWPFAFWGQGTLVTVSS VL: DIVMTQSPDSLAVSLGERATINCRASESVNVHGAHLMHWYQQKPGQPPKLLIYAASILESGVPDRFSGSGSGTDFTLTISSLQAEDVAVYYCQQTIEDPRTFGGGTKVEIKR
239 fold

Dear colleague, I am looking for the recorded ADCC activity, Multiple of maximum fluorescence value (vs. IgG) of the following binder: 7G7B6 (antibody, V domains shown) VH: EVQLVESGGDLVQPRGSLKLSCAASGFTFSSYGMSWVRQTPDKRLELVATINGYGDTTYYPDSVKGRFTISRDNAKNTLYLQMSSLKSEDTAMYFCARDRDYGNSYYYALDYWGQGTSVTVSS VL: QIVLSQSPAILSASPGERVTMTCRASSSVSFMHWLQQKPGSSPKPWIYATSNLASGVSARFSGSGSGTSYSLTITRVEAEDAATYYCQQWSSNPPAFGGGTKLEIK
13.3 fold

Dear colleague, I am looking for the recorded ADCC activity, Multiple of maximum fluorescence value (vs. IgG) of the following binder: PR058 (antibody, human IgG1, kappa, V domains shown) VH: EVQLVESGGGLVQPGGSLRLSCAASGFTFSSYAMSWVRQAPGKRLEWVATISEGGSYTYYPDNVKGRFTISRDNSKNTLYLQMNSLRAEDTAVYLCVRDNPWFAYWGQGTLVTVSS VL: DVLMTQSPLSLPVTPGEPASISCRSSQNIVHSNGNTYLEWFLQKPGQSPKLLIYKVSKRFSGVPDRFSGSGSGTDFTLKISRVEAEDVGVYYCFQGSHVPYTFGGGTKVEIKR
386 fold

Dear colleague, I am looking for the recorded ADCC activity, Multiple of maximum fluorescence value (vs. IgG) of the following binder: PR071 (antibody, human IgG1, kappa, V domains shown) VH: EVQLVQSGSELKKPGASVKVSCKASGYTFTDYYINWVRQAPGQGLEWMAWIFPGNGNTYFNENFKDRVTLTADKFSSTAYMELSSLRSEDTAVYYCARATYDHGGYWYFDVWGQGTTVTVSS VL: EIVLSQSPATLSLSPGERATLSCRASSSVSHIHWYQQKPGSSPKPWIYATSNLASGVPGRFSGSGSGTSYSLTVSRVEAEDAATYYCQHWNSFTFGGGTKVEIKR
322 fold
